biological target: T1, c-erbB-2 ECD with a Ser-Gly-His6 C-terminal fusion (UniProt P04626 23-652); test: SPR BIAcore
T1 construct: extracellular domain; Expressed from CHO cells, IMAC purified; coupled to a CM5 chip, coated on plates, or biotinylated with NHS-LC-biotin; also called c-erbB-2 extracellular domain; biotinylated c-erbB-2 ECD
Would you mind telling me the reported pKd of each entry?
Entry type: numeric. Quantity: pKd, the -log10 of concentration in molar units.

pKd measured on C6ML3-17 (scFv) scFv: QVQLLQSGAELKKPGESLKISCKGSGYSFTSYWIAWVRQMPGKGLEYMGLIYPGDSDTKYSPSFQGQVTISVDKSVSTAYLQWSSLKPSDSAVYFCARHDVGYCSSSNCAKWPEYFQHWGQGTLVTVSSGGGGSGGGGSGGGGSQSVLTQPPSVSAAPGQKVTISCSGSSSNIGNNYVSWYQQLPGTAPKLLIYGHTNRPAGVPDRFSGSKSGTSASLAISGFRSEDEADYYCASWDYYRSGWVFGGGTKLTVLG = 8.30

pKd measured on C6ML3-19 (scFv) scFv: QVQLLQSGAELKKPGESLKISCKGSGYSFTSYWIAWVRQMPGKGLEYMGLIYPGDSDTKYSPSFQGQVTISVDKSVSTAYLQWSSLKPSDSAVYFCARHDVGYCSSSNCAKWPEYFQHWGQGTLVTVSSGGGGSGGGGSGGGGSQSVLTQPPSVSAAPGQKVTISCSGSSSNIGNNYVSWYQQLPGTAPKLLIYGHTNRPAGVPDRFSGSKSGTSASLAISGFRSEDEADYYCASWDRPLWGWVFGGGTKLTVLG = 8.82

pKd measured on C6ML3-29 (scFv) scFv: QVQLLQSGAELKKPGESLKISCKGSGYSFTSYWIAWVRQMPGKGLEYMGLIYPGDSDTKYSPSFQGQVTISVDKSVSTAYLQWSSLKPSDSAVYFCARHDVGYCSSSNCAKWPEYFQHWGQGTLVTVSSGGGGSGGGGSGGGGSQSVLTQPPSVSAAPGQKVTISCSGSSSNIGNNYVSWYQQLPGTAPKLLIYGHTNRPAGVPDRFSGSKSGTSASLAISGFRSEDEADYYCAAWDGTLWGWVFGGGTKLTVLG = 8.77
